Test: Cmax in Cynomolgus monkey at 1 mg/kg, iv measured upto 24 hrs
Type: ADME, organism-based, Macaca fascicularis
Parameters: route intravenous, dose 1 mg/kg, time <=24
Conditions: in vivo
Quantity kind: Cmax (ng/mL)

Query :: What does the record list as Cmax for C[C@H](NCc1ccc(OCc2cccc(F)c2)cc1)C(N)=O [SAFINAMIDE] ?
Result :: 1080

Query :: And what about the compound "NC(=O)[C@@H]1C[C@H](F)CN1Cc1ccc(OCc2cccc(F)c2)cc1" ?
Result :: 924

* * *

Test: Metabolic stability in human liver microsome assessed as half life at 1 uM measured after 60 min in presence of NADPH by LC-MS/MS analysis
Type: ADME
Settings: liver microsomes
Quantity kind: half-life at 1 µM (h)
Answer in h, number only, no unit symbol.

Query :: Param item = "NC(=O)[C@@H]1C[C@H](F)CN1Cc1ccc(OCc2cccc(F)c2)cc1" ; retrieve measured half-life at 1 µM.
Result :: 2.23
